Just for reference, patent US20250333515A1 is where these values come from.

Biological target: biotinylated recombinant human CLL-1 extracellular domain protein, isoform with lysine at amino acid position 244 (human) (UniProt Q5QGZ9)
Sequence (Q5QGZ9 65-265): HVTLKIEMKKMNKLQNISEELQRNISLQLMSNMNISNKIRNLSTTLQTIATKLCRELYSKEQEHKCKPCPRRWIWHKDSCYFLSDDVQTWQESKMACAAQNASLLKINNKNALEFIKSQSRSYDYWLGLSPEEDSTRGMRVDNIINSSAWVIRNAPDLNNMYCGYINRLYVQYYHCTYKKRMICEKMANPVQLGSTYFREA
Assay: EC50 table, CLL-1 K244; reciprocals of the ELISA bars of FIG. 8B
pEC50: −log10 of the molar value.
quantity measured: pEC50

binder="Anti-CLL-1 Binder Clone 96 (VHH) VHH: QVQLVQSGGGLVQPGGSLRLSCAASYFDFSYYEMSWVRQAPGKGLEWVSLMSGNGGSTYYADSVKGRFTISRDNSKNTLYLQMNTLRAEDTATYYCVAHSSTWFSWGQGTLVTVSS" observed_value=8.19

I. Anti-CLL-1 Binder Clone 95 (VHH) VHH: QVQLVQSGGGLVQPGGSLRLSCAASAFDFDDSSMDWVRQAPGKALEWIGSISYFGSTYYNPSLKSRVTISRDNSKNTLYLQMNTLRAEDTATYYCTRSALYGDAAFDVWAQGTTVTVS
II. Anti-CLL-1 Binder Clone 100 (VHH) VHH: QVQLVQSGGGLVQPGGSLRLSCAASDFDFDDDSMDWVRQAPGKALEWIGSVSYSGQTFYNPSLKSRVTISRDNSKNTLYLQMNTLRAEDTAMYYCTRSALYGDAAFDVWAQGTMVTVSS
III. Anti-CLL-1 Binder Clone 98 (VHH) VHH: QVQLVQSGGGLVQPGGSLRLSCAASDFYFDDYEMSWVRQAPGQRLEWVSLISSDGTTYYADSVKGRFTISRDNSKNTLYLQMNTLRAEDTALYYCVRTTDSWELDLWGRGTLVTVSS
Q) Please list these in order of increasing pEC50. Thank you! To answer, write out the labels according to the requested order.
A) III, I, II
(III: 7.92, I: 8.29, II: 9.22)
